test: Physical stability; visual assessment (color, turbidity, phase separation); assay type: physicochemical; design: key: ++: no discernible change with respect to color, turbidity or phase separation; +: marginal change in color number, somewhat increased Tyndall effect but no turbidity; 0: easily discernible increase in color number and moderate turbidity−no phase separation; −: turbidity and change in color number readily discernible by visual assessment; −−: strong color change with strong turbidity and incipient phase separation; details: Polymer P9 with stabilizer

COMPOUND	Physical stability, 60 d 40° C.*
Cn1sc(Cl)cc1=O	−−
CCCCCCCCn1sccc1=O	−−
O=c1[nH]sc2ccccc12	−
CCCCNC(=O)OCC#CI [Iodopropynyl butyl carbamate, iodopropynyl butyl carbamate]	−
CCCCCCCCCCCCCCCC[n+]1ccccc1 [CPC, cetylpyridinium chloride]	+
CCCCCCCCCCCCCCCC[N+](C)(C)Cc1ccccc1.[Cl-] [Polymer 16-BAC, cetylalkonium chloride]	++
Cn1sccc1=O	−
CCCCCCCCn1sc(Cl)c(Cl)c1=O	−
CCCCCCCCCC[N+](C)(C)CCCCCCCCCC.[Cl-] [DDAC, didecyldimethylammonium chloride]	++

Source listed as patent US12281225B2.
